test system: P388 leukemia ip, CD2F1 mice, survival T/C; assay: NCI In Vivo Anticancer Drug Screen. Data for tumor model P388 Leukemia (intraperitoneal) in CD2F1 (CDF1) mice; settings: endpoint: median survival time; dose: 240.0 mg/kg/injection; schedule: Q01DX005 (ip); vehicle: saline with Tween-80; higher = longer survival
Toxic doses and inconclusive results are not listed.
measure: T/C

CC(C)c1ccc(OC(=O)Nc2c(Cl)cccc2Cl)cc1 = 115 % of control
COC(=O)C12C3C4C1C1C2C3C41C(=O)OC (centres undefined) = 102 % of control
Cn1cc(CCC(=O)C2C=CC=CC2=NC(=O)CCCl)c2ccccc21 (centres undefined) = 94 % of control

Moving on to the next compound.
Dear colleague, I am looking for the recorded T/C of the following compound: `COC(=O)c1cc(/C=C/c2ccccc2)[nH]c(=O)c1C#N` 98 % of control

* * *

tested on: P388 leukemia ip, CD2F1 mice, survival T/C; experiment: NCI In Vivo Anticancer Drug Screen. Data for tumor model P388 Leukemia (intraperitoneal) in CD2F1 (CDF1) mice; settings: endpoint: median survival time; dose: 200.0 mg/kg/injection; schedule: Q01DX005 (ip); vehicle: saline with Tween-80; higher = longer survival
Inconclusive results and toxic doses are left out.
measure: T/C

Example cases with answers are listed next.
CCCCN(CCCC)CC(O)c1ccc(Br)c2ccccc12 (stereo unspecified) = 104 % of control
CCC(C)C(NC=O)C(=O)O (stereo unspecified) = 100 % of control
CN(N=O)C(=O)NCCNC(=O)C1OC(n2cnc3c(=O)[nH]cnc32)C(O)C1O (stereo unspecified) = 109 % of control

# batch size: 3; output T/C per entry
1. COC(=O)c1c(C(=O)Nc2ccccc2)c(-c2ccccc2)n(NC(N)=O)c1C
2. O=C1CC(=O)N(C2CCCCC2)C(=O)N1c1ccccc1S(=O)(=O)Oc1ccccc1
3. Cc1ccc2c(c1)C1(SCCC(=O)N1c1ccc(Cl)cc1)C(=O)N2 (stereo unspecified)

1. 104 % of control
2. 103 % of control
3. 100 % of control

* * *

For each entry below, report its T/C value.
test system: P388 leukemia ip, CD2F1 mice, survival T/C; assay: NCI In Vivo Anticancer Drug Screen. Data for tumor model P388 Leukemia (intraperitoneal) in CD2F1 (CDF1) mice; details: endpoint: median survival time; dose: 25.0 mg/kg/injection; schedule: Q01DX005 (ip); vehicle: saline with Tween-80; higher = longer survival
Toxic doses and inconclusive results are not listed.

// below: answered molecules
CC(C)C(NC(=O)[C@@H](C(C)C)N1C(=O)c2ccccc2C1=O)C(=O)O (stereo not given in full) = 101 % of control
O=C(N/N=C/c1ccco1)c1ccc(OCc2nc3ccccc3[nH]2)cc1 = 97 % of control
CC1(C)CC(=O)C=C(Nc2ccc(O)cc2)C1 = 96 % of control

Record T/C for all entries; do not skip any.
1. C/C=C/C1CC2CC(CC(O)CC)CN2O1 (stereo not given)
2. CC1(C)C(=O)N(Cl)C(=O)N1Cl
3. CC1CCC(C)N(C)C1 (stereo not given)
4. O=C(NCCCCCCCNC(=O)C12CC3CC(CC(C3)C1)C2)C12CC3CC(CC(C3)C1)C2
5. CC1CCCCN1C (stereo not given)
6. COC(=O)C1=CC(=O)N2C(=Nc3cccc4cccc2c34)S1
7. C#CC1(O)CC(c2ccccc2)N(C)C(c2ccccc2)C1 (stereo not given)
8. O=C(c1ccccc1)C(Cl)C(Cl)c1ccccc1 (stereo not given)

108 % of control
97 % of control
98 % of control
89 % of control
90 % of control
103 % of control
98 % of control
102 % of control

Each of the following entries comes with a recorded value; kindly state T/C for each.
1. C[Si]1(C)O[Si](C)(C)N(N)P(=S)(Oc2ccccc2)N1N
2. CCOc1ccc(C(C)c2cc3c(cc2OCC)OCO3)cc1 (stereo not given)

108 % of control
120 % of control

Respectfully, I request T/C for each entry included below.
1. C/C(=N\NC(=S)N1CCCCCC1)c1cccc(C)n1
2. Cc1nc(N)nc(N)c1-c1ccc(N)cc1
3. O=C1c2ccccc2C(Cl)(c2ccc(Cl)cc2)c2ccc(Cl)cc21 (stereo not given)
4. C=C(C)C1(C)CC1c1ccncc1 (stereo not given)
5. S=C=NP1(N=C=S)=NP(N=C=S)(N=C=S)=NP(N=C=S)(N=C=S)=NP(N=C=S)(N=C=S)=N1 (stereo not given)

1. 109 % of control
2. 103 % of control
3. 107 % of control
4. 102 % of control
5. 99 % of control

Batch lookup, T/C per entry.
1. O=C1NC(O)c2cc(F)ccc2O1 (stereo not given)
2. CC(C)=CC(C(=O)C1CC1)C(CC(=O)C1CC1)C(C)C (stereo not given)

104 % of control
99 % of control

* * *

system: P388 leukemia ip, CD2F1 mice, survival T/C; experiment: NCI In Vivo Anticancer Drug Screen. Data for tumor model P388 Leukemia (intraperitoneal) in CD2F1 (CDF1) mice; conditions: endpoint: median survival time; dose: 240.0 mg/kg/injection; schedule: Q01DX005 (ip); vehicle: saline with Tween-80; higher = longer survival
Inconclusive results and toxic doses are left out.
measure: T/C

CCCc1[nH]nc(-c2n[nH]c(CCC)c2CC)c1CC = 110 % of control
C[N+](C)=c1ccc2nc3c(cc(NCCCNc4cc5oc6cc(=[N+](C)C)ccc-6nc5c5ccccc45)c4ccccc43)oc-2c1 = 103 % of control
COc1cc(C(c2cc3c(cc2OC(C)=O)OCO3)C(C)C(C)=O)cc(OC)c1OC (stereo not drawn) = 111 % of control
COC(=O)C1CC(C(=O)OC)C2C(C(=O)OC)CC(C(=O)OC)C12 (stereo not drawn) = 99 % of control
OCc1sccc1-n1cccc1 = 104 % of control

For each listed entry, give its T/C.
1. COc1cc2c(cc1C/C=C/c1cc(OC)c(OC)c(OC)c1)OCO2
2. O=C(O)C(Cc1ccccc1)NC(c1ccc(Cl)cc1)P(=O)(O)O (stereo not drawn)
3. NC(=O)NC(=O)C(Cc1ccc(Cl)cc1)c1ccccc1 (stereo not drawn)
4. COC(=O)N1c2ccccc2[C@@H](O)[C@@H]1OC

1. 86 % of control
2. 97 % of control
3. 88 % of control
4. 100 % of control

For every item in the list below, what is its measured T/C?
1. O=C(O)c1ccc(S(=O)(=O)F)c(Cl)c1
2. Cc1cc(C)nc(NS(=O)(=O)c2ccc(Nc3c4ccccc4nc4ncccc34)cc2)n1
3. N=C1N=Nc2nc(C(C(=O)c3cccc([N+](=O)[O-])c3Cl)c3nc4n(c3O)C(=N)N=N4)c(O)n21 (stereo not drawn)

121 % of control
90 % of control
106 % of control

Quick one: give me T/C for each item below, same order please.
1. CC[C@@H](O)[C@H](CC[Se]c1ccccc1)C(=O)[C@H](O)C1CCCCC1
2. O=C1CC2(CCc3ccccc32)C(=O)N1CN1CCOCC1 (stereo not drawn)
3. Nc1nc(-c2ccccc2)c(CC(=O)O)c(-c2nc(N)nc(-c3ccccc3)c2CC(=O)O)n1

1: 108 % of control; 2: 100 % of control; 3: 86 % of control

* * *

Assign T/C to each entry below.
test system: P388 leukemia ip, CD2F1 mice, survival T/C; test: NCI In Vivo Anticancer Drug Screen. Data for tumor model P388 Leukemia (intraperitoneal) in CD2F1 (CDF1) mice; conditions: endpoint: median survival time; dose: 200.0 mg/kg/injection; schedule: Q01DX009 (ip); vehicle: saline; higher = longer survival
Inconclusive results and toxic doses are left out.

# annotated cases, reported T/C shown
C=C1SC(=Nc2cccc(OC)c2)N(c2nc(Cl)nc(Cl)n2)C12CCCCC2 = 100 % of control
CCOP(=O)(NNP(=O)(OCC)OCC)OCC = 104 % of control
CC1CC(=O)OC2CC(C)(C)CC(=O)C12 (configuration not stated) = 100 % of control
O=C(O)C(CS(=O)(=O)O)Nc1ncnc2nc[nH]c12 (configuration not stated) = 100 % of control
NC(CC(=O)O)C(=O)OCc1ccccc1 (configuration not stated) = 98 % of control
N#CCCNc1ccc(F)cc1 = 104 % of control

For each of the items listed, what is its T/C?
1. CCC(C(=O)Nc1ccccc1-c1ccccc1)c1ccccc1 (configuration not stated)
2. CCCCCCCCCCCCCCCCS(=O)(=O)N/N=c1\cc(-c2ccccc2Cl)c2ccccc2n1C

1: 87 % of control; 2: 89 % of control

* * *

Hi there, I'd appreciate the recorded T/C for every entry that follows.
test system: P388 leukemia ip, CD2F1 mice, survival T/C; test: NCI In Vivo Anticancer Drug Screen. Data for tumor model P388 Leukemia (intraperitoneal) in CD2F1 (CDF1) mice; conditions: endpoint: median survival time; dose: 200.0 mg/kg/injection; schedule: Q01DX009 (ip); vehicle: saline with Tween-80; higher = longer survival
Inconclusive results and toxic doses are left out.

Worked cases, answers included:
CC(C)(C)c1cc(C=O)cc(C(C)(C)C)c1O = 91 % of control
CC(=O)Nc1ccc(C(=O)O)cc1[N+](=O)[O-] = 99 % of control
CCOc1cc2c(=O)[nH]cnc2c(OCC)c1OCC = 98 % of control
CC(=O)/C(C=NC1CC(N=C/C(C(C)=O)=C(/C)O)CC(N=C/C(C(C)=O)=C(/C)O)C1)=C(/C)O (stereo unspecified) = 93 % of control
NC(=O)c1cnc(N)nc1 = 106 % of control

# get_value(readout='T/C', item= COc1ccc(CC2CCCNC2C(=O)O)cc1 (stereo unspecified) ) 99 % of control
